The measurements presented in this section are drawn from paper PMC8961646.

# test target: rhFAP (Homo sapiens, UniProt Q12884)
# Construct: purchased R&D Systems
# Sequence (Q12884 26-760 limits assumed): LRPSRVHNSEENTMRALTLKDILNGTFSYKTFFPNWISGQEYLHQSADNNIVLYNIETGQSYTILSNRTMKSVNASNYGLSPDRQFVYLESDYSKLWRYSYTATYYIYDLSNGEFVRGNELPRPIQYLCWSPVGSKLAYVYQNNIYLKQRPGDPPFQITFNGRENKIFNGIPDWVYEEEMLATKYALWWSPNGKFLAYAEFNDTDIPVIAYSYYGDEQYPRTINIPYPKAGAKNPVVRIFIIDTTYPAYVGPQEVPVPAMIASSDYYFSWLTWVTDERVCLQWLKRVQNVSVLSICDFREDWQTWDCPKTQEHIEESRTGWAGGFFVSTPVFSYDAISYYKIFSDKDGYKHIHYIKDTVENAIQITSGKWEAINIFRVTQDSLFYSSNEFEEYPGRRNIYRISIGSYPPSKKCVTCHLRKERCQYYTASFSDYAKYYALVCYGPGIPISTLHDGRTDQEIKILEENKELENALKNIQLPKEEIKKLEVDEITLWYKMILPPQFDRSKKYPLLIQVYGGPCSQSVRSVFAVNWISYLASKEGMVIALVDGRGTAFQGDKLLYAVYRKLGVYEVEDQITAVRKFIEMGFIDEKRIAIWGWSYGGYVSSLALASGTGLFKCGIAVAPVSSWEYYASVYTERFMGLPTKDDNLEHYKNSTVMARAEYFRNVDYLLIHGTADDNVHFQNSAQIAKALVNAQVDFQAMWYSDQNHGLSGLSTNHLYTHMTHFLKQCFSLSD
# method: Probe cleavage by recombinant human FAP (fluorescence plate assay, MALDI confirmation)
# Type: biochemical
# assay setup: probe 5 µM, rhFAP 0.1 µg/ml, TRIS buffer (pH 7.5), 20 µl, read 480/530 nm, n=3 run in triplicate
Non-standard residues stand in square brackets, D forms with d. Residues, ends and D or L forms follow the SMILES beside them. *: point of attachment. 5FAM = O=C1OC2(c3ccc(O)cc3Oc3cc(O)ccc32)c2ccc(C(=O)*)cc21; MethylRed = CN(C)c1ccc(/N=N/c2ccccc2C(=O)*)cc1; AEEA = NCCOCCOCC(=O)O; βAla = NCCC(=O)O
measurement type: Cleavage by rhFAP (fluorescence signal)

compound	result
C[C@@H](NC(=O)[C@@H](N)CCCCNC(=O)c1ccccc1/N=N/c1ccc(N(C)C)cc1)C(=O)N1CCC[C@H]1C(=O)N[C@@H](CO)C(=O)N[C@@H](CCCCNC(=O)c1ccc2c(c1)C(=O)OC21c2ccc(O)cc2Oc2cc(O)ccc21)C(=O)NCCOCCOCC(=O)N[C@H](CCCCN)C(=O)NCCOCCOCC(=O)N[C@H](CCCCN)C(=O)NCCOCCOCC(=O)N[C@H](CCCCN)C(N)=O [FAP2BD-Ala] (H-K(MethylRed)[dA]PSK(5FAM)[AEEA][dK][AEEA][dK][AEEA][dK]-NH2)	reduced signal
C[C@H](O)[C@@H](NC(=O)[C@@H](N)CCCCNC(=O)c1ccccc1/N=N/c1ccc(N(C)C)cc1)C(=O)N1CCC[C@H]1C(=O)N[C@@H](CO)C(=O)N[C@@H](CCCCNC(=O)c1ccc2c(c1)C(=O)OC21c2ccc(O)cc2Oc2cc(O)ccc21)C(=O)NCCOCCOCC(=O)N[C@H](CCCCN)C(=O)NCCOCCOCC(=O)N[C@H](CCCCN)C(=O)NCCOCCOCC(=O)N[C@H](CCCCN)C(N)=O [FAP2DD-Thr] (H-K(MethylRed)[dT]PSK(5FAM)[AEEA][dK][AEEA][dK][AEEA][dK]-NH2)	reduced signal
CN(C)c1ccc(/N=N/c2ccccc2C(=O)NCCCC[C@H](N)C(=O)NCCC(=O)N2CCC[C@H]2C(=O)N[C@@H](CO)C(=O)N[C@@H](CCCCNC(=O)c2ccc3c(c2)C(=O)OC32c3ccc(O)cc3Oc3cc(O)ccc32)C(=O)NCCOCCOCC(=O)N[C@H](CCCCN)C(=O)NCCOCCOCC(=O)N[C@H](CCCCN)C(=O)NCCOCCOCC(=O)N[C@H](CCCCN)C(N)=O)cc1 [FAP2Fβ-Ala] (H-K(MethylRed)[βAla]PSK(5FAM)[AEEA][dK][AEEA][dK][AEEA][dK]-NH2)	reduced signal
